B1: LINE1-mini (parent)
chain: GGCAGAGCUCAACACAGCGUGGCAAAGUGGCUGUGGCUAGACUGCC

Variants of: B1
Assay: self-cleavage, relative activity (ratio to wild type); higher = more cleavage; in vitro, sequencing; the parent is a self-cleaving ribozyme
# self-cleavage per entry
Endpoint Name: self-cleavage

Mutations | Measured Value
C10U U28C | 0.13
G5A A39G | 0.08
A11U G27U | 0.13
G27U G40A | 0.13
G35U U38A | 0.12
G19A U32C | 0.12
G5U C10G | 0.03
A16G A39G | 0.07
A25U A41U | 0.6
C15A G33C | 0.06
G5C G35A | 0.1

Value source: the RNAGym collection of RNA variant scans (doi:10.7554/elife.90254)
